Value source: paper PMC11747885

target.or.test.system: Rlig1-AMP (Homo sapiens)
Construct: made in house; host or cells: E. coli BL21 (DE3), pET15b-Rlig1
test.description: FRET-based high-throughput screening of inhibitors for Rlig1-AMP
Assay type: biochemical
experimental.context: HTS hits; with enzyme
value.kind: Raw data [w Enyzm]
One number for each entry.

Cl.Cl.N=C(N)c1ccc2nc(-c3ccc(-c4nc5ccc(C(=N)N)cc5[nH]4)[se]3)[nH]c2c1 [DB1976 (dihydrochloride)] : 4805
COc1cccc2c1C(=O)c1c(O)c3c(c(O)c1C2=O)C[C@@](O)(C(=O)CO)C[C@@H]3O[C@H]1C[C@H](N)[C@@H](O)[C@H](C)O1.Cl [Epirubicin (hydrochloride)] : 1246

Go through the items and report each one's Raw data [w Enyzm].
1. c1cc(-c2cnn3cc(-c4ccc(N5CCNCC5)cc4)cnc23)c2cccnc2c1
2. c1cnc(N2CCN(Cc3ccc4c(c3)OCO4)CC2)nc1
3. CCC(O)C(=O)[O-].[Na+] (stereo not drawn) [Sodium 2-hydroxybutanoate]
4. COS(=O)(=O)[O-].COc1cccc2c1nc1ccccc1[n+]2C
5. CN(C)C/C=C/C(=O)Nc1ccc(C(=O)Nc2cccc(Nc3ncc(Cl)c(-c4c[nH]c5ccccc45)n3)c2)cc1.Cl [THZ1 (Hydrochloride)]
6. CC1CS(=O)(=O)CCN1/N=C/c1ccc([N+](=O)[O-])o1 (stereo not drawn)

a:
7408
9369
8789
4514
6030
7893

Hi, could you look up Raw data [w Enyzm] for each item in my list?
1. NC[C@@H]1O[C@H](O[C@H]2[C@@H](O)[C@H](O[C@@H]3[C@@H](O)[C@H](N)C[C@H](N)[C@H]3O[C@H]3O[C@H](CO)[C@@H](O)[C@H](O)[C@H]3N)O[C@@H]2CO)[C@H](N)[C@@H](O)[C@@H]1O.O=S(=O)(O)O [Paromomycin (sulfate)]
2. O=C1c2c(O)ccc(O)c2C(=O)c2c(NCCNCCO)ccc(NCCNCCO)c21
3. CC1(C)CCC(C)(C)c2cc(NC(=O)c3ccc(C(=O)O)cc3)ccc21
4. Cc1[nH]c(/C=C2\C(=O)Nc3ccc(S(=O)(=O)Cc4c(Cl)cccc4Cl)cc32)c(C)c1C(=O)N1CCC[C@@H]1CN1CCCC1
5. N[C@@H](Cc1cc(CP(=O)(O)O)cc(-c2ccccc2Cl)c1)C(=O)O
6. C/C1=C2/[N-]C([C@H](CC(N)=O)[C@@]2(C)CCC(=O)NC[C@@H](C)OP(=O)([O-])O[C@H]2[C@@H](O)[C@@H](n3cnc4cc(C)c(C)cc43)O[C@@H]2CO)[C@]2(C)N=C(/C(C)=C3N=C(/C=C4N=C1[C@@H](CCC(N)=O)C\4(C)C)[C@@H](CCC(N)=O)[C@]\3(C)CC(N)=O)[C@@H](CCC(N)=O)[C@]2(C)CC(N)=O.CC(=O)[O-].[Co+3] [Hydroxocobalamin (acetate)]
7. O=c1[nH]c(=O)c2ccccc2[nH]1

a:
1. 8444
2. 3553
3. 8958
4. 5362
5. 24871
6. 4827
7. 9137

Below are some compounds; for each one, tell me its Raw data [w Enyzm].
1. CN(C)Cc1ccc(-c2cnn3c(-c4cccc(NC(=O)c5cccc(C(F)(F)F)c5)c4)ccnc23)cc1
2. Cc1cnc(NCCCN(C)C)c2c1[nH]c1ccc3cc(O)ccc3c12
3. CN(C)c1ccc2nc3ccc(=[N+](C)C)cc-3sc2c1.O.O.O.[Cl-] [Methylene blue (trihydrate)]

a:
7195
6875
6070

Each compound below has a reported value. Please supply its Raw data [w Enyzm].
1. N[C@@H](CS)C(=O)O
2. COc1cc2c(NC3CCN(C)CC3)cc(-c3ccc(C)o3)nc2cc1OCCCN1CCCC1
3. COC(=O)Cc1ccc(C(C)(C)C)cc1 [Methyl p-tert-butylphenylacetate]

a:
1. 9158
2. 6004
3. 8807

// each listed compound needs a value for Raw data [w Enyzm]
1. CN1CCC=C(C(=O)O)C1
2. CCCCCCCCN=c1ccn(CCCCCCCCCCn2ccc(=NCCCCCCCC)cc2)cc1.Cl.Cl [Octenidine (dihydrochloride)]
3. CN1CCCN(C(=O)c2cccc(-c3ccc(/C=C4/C(=O)Nc5ccc(Cl)cc54)o3)c2)CC1
4. CCCCCCCCCCCCCCCC[N+](C)(C)CCN(Cc1ccc(OC)cc1)c1ncccn1.[Br-] [Thonzonium (bromide)]
5. O=S(=O)(O)c1ccc2cc(N=Nc3cc(S(=O)(=O)O)c4cccnc4c3O)ccc2c1
6. C[n+]1ccc(-c2c3nc(c(-c4cc[n+](C)cc4)c4ccc([nH]4)c(-c4cc[n+](C)cc4)c4nc(c(-c5cc[n+](C)cc5)c5ccc2[nH]5)C=C4)C=C3)cc1.Cc1ccc(S(=O)(=O)[O-])cc1.Cc1ccc(S(=O)(=O)[O-])cc1.Cc1ccc(S(=O)(=O)[O-])cc1.Cc1ccc(S(=O)(=O)[O-])cc1 [TMPyP4 tosylate]

a:
8786
8818
5174
4968
1020
658

----------
Exercise: state measured Raw data [w/o Enzym] for each of the molecules provided.
target.or.test.system: Rlig1-AMP (Homo sapiens, UniProt Q8N999)
Construct: made in house; host or cells: E. coli BL21 (DE3), pET15b-Rlig1
Sequence (Q8N999 whole entry): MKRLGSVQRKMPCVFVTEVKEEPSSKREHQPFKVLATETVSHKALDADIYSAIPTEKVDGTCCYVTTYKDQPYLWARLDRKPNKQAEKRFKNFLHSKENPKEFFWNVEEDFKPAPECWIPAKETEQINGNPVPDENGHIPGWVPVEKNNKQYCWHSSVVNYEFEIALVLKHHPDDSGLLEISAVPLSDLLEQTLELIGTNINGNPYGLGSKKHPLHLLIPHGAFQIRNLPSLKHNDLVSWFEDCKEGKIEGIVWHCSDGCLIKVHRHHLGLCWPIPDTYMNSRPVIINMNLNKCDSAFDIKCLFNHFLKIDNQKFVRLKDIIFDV
test.description: FRET-based high-throughput screening of inhibitors for Rlig1-AMP
Format: biochemical
experimental.context: HTS hits; without enzyme
Answers are plain numbers.

Answered examples (2):
COc1cccc2c1C(=N)c1c(O)c3c(c(O)c1C2=O)C[C@@](O)(C(C)=O)C[C@@H]3O[C@H]1C[C@H](N)[C@H](O)[C@H](C)O1 : 3734
COc1c2c3c4c(c(OC)c(=O)c5c(O)cc(OC)c(c6c(OC)cc(O)c(c1=O)c63)c54)[C@@H](C(C)=O)[C@@](C)(O)C2 : 3045

Shift focus to the following entry.
q: Tell me measured Raw data [w/o Enzym] for O=C1c2ccccc2-c2nc3nnnn3nc21.O=C1c2ccccc2-c2nn3nnnc3nc21 please.
a: 13923

----------
Answer each item with its documented 1-D Distance.npi.
target.or.test.system: Rlig1-AMP (Homo sapiens)
Construct: made in house; host or cells: E. coli BL21 (DE3), pET15b-Rlig1
test.description: FRET-based high-throughput screening of inhibitors for Rlig1-AMP
Format: biochemical
experimental.context: sheet HTS hits; MedChemExpress library
Give bare numbers.

Solved entries (count: 4):
C=CC1=C(C)c2cc3[n-]c(cc4nc(cc5[n-]c(cc1n2)c(C)c5C=C)C(C)=C4CCC(=O)O)c(CCC(=O)O)c3C.[Cl-].[Fe+3] : 76.0753
COc1cc(/C=C/C(=O)NCC(O)c2ccc(O)cc2)ccc1O (stereo not shown) : 70.0499
O=C1c2ccccc2-c2nc3nonc3nc21 : 102.522
COc1cc(S(=O)(=O)[O-])ccc1O.[K+] : 81.4409

For each of the items listed, what is its 1-D Distance.npi?
1. COc1cccc2c1C(=O)c1c(O)c3c(c(O)c1C2=O)C[C@@](O)(C(C)=O)C[C@@H]3O[C@H]1C[C@H](N)[C@H](O)[C@H](C)O1.Cl [Daunorubicin (hydrochloride)]
2. Cc1cccc2c3c(ccc12)C(=O)C1=C(OCC1C)C3=O (stereo not shown) [Dihydroisotanshinone I]

a:
1: 94.9773; 2: 72.3395

q: Return reported 1-D Distance.npi for target or system Rlig1-AMP (Homo sapiens), item C#CCOCCOCCOCCOCC#C .
a: 78.8376

----------
target.or.test.system: Rlig1-AMP (Homo sapiens, UniProt Q8N999)
Construct: made in house; host or cells: E. coli BL21 (DE3), pET15b-Rlig1
test.description: FRET-based high-throughput screening of inhibitors for Rlig1-AMP
Assay type: biochemical
experimental.context: HTS hits, MedChemExpress library
Field: 1-D Distance.npi. Provide a value for each of the molecules that follow.
Give bare numbers.

COCC(=O)O[C@]1(CCN(C)CCCc2nc3ccccc3[nH]2)CCc2cc(F)ccc2[C@@H]1C(C)C.Cl.Cl [Mibefradil (dihydrochloride)] : 70.2795

Count: 4. Required value per item: 1-D Distance.npi.
1. COc1cccc2c1C(=O)c1c(O)c3c(c(O)c1C2=O)C[C@@](O)(C(=O)CO)C[C@@H]3O[C@H]1C[C@H](N)[C@@H](O)[C@H](C)O1.Cl [Epirubicin (hydrochloride)]
2. O=c1[nH]c(=O)c2ccccc2[nH]1 [Benzoyleneurea]
3. Cc1cc(-c2cc(O)ccc2Cl)cc2nnc(Nc3ccc(OCCN4CCCC4)cc3)nc12.Cl [TG 100572 (Hydrochloride)]
4. Cl.NC(CO)(CO)CCc1ccc(Sc2cccc(OCc3ccccc3)c2)cc1Cl [Mocravimod (hydrochloride)]

a:
1. 99.0682
2. 70.2932
3. 103.738
4. 104.362

# map each molecule to its 1-D Distance.npi
1. NCCNc1ccc(NCCN)c2c1C(=O)c1ccncc1C2=O.O=C(O)/C=C\C(=O)O.O=C(O)/C=C\C(=O)O [Pixantrone (dimaleate)]
2. CC(C)=CC[C@H](O)C1=CC(=O)c2c(O)ccc(O)c2C1=O [(-)-Alkannin]
3. CN(C)C/C=C/C(=O)Nc1ccc(C(=O)N[C@@]2(C)CCC[C@@H](Nc3ncc(Cl)c(-c4c[nH]c5ccccc45)n3)C2)nc1 [Mevociclib]
4. Cc1ccc(C(=O)Nc2ccc(S(=O)(=O)[O-])c3cc(S(=O)(=O)[O-])cc(S(=O)(=O)[O-])c23)cc1NC(=O)c1cccc(NC(=O)Nc2cccc(C(=O)Nc3cc(C(=O)Nc4ccc(S(=O)(=O)[O-])c5cc(S(=O)(=O)[O-])cc(S(=O)(=O)[O-])c45)ccc3C)c2)c1.[Na+].[Na+].[Na+].[Na+].[Na+].[Na+] [Suramin (sodium salt)]

a:
[84.4919, 70.9637, 95.3899, 85.8095]

The following molecules each have a reported value; give each one's 1-D Distance.npi.
1. O=C(O)c1ccc(-c2ccc(N(c3ccc(-c4ccc(C(=O)O)cc4)cc3)c3ccc(-c4ccc(C(=O)O)cc4)cc3)cc2)cc1 [Antibacterial agent 18]
2. N#Cc1cc(NS(=O)(=O)c2ccc(N)cc2)ccc1Oc1ccc(Cl)c(C(F)(F)F)c1 [Lp-PLA2-IN-3]
3. Cl.Cl.O=C1c2c(O)ccc(O)c2C(=O)c2c(NCCNCCO)ccc(NCCNCCO)c21 [Mitoxantrone (dihydrochloride)]
4. CN(C)c1ccc2nc3ccc(=[N+](C)C)cc-3sc2c1.O.O.O.[Cl-] [Methylene blue (trihydrate)]
5. O=C(NCCCCCCCCCC[P+](c1ccccc1)(c1ccccc1)c1ccccc1)c1nn(Cc2ccc(Cl)cc2Cl)c2ccccc12.[Br-] [Mito-LND]
6. CCCCCOc1ccccc1/C(=C\SC)n1ccnc1.Cl [Neticonazole (hydrochloride)]

a:
1. 80.2581
2. 92.9896
3. 101.642
4. 83.8926
5. 74.0964
6. 74.1423

q: Identify 1-D Distance.npi associated with the molecule CCCC[C@@H](NC(=O)[C@@H](Cc1cn(C(=O)OC)c2ccccc12)NC(=O)[C@H](CC(C)(C)C)NC(=O)N1[C@H](C)CCC[C@@H]1C)C(=O)[O-].[Na+] [BQ-788]
a: 75.2571
